Reference source: the domain aggregation screens of Martell et al. (2025)

# assayComment: soluble fraction after stress (log2 fold change); higher = more stays soluble; pooled small domains, quantitative proteomics
# appliedConditions: stress: pH 4
measurementLabel: soluble fraction (log2)
I only need the number, thanks.

Here is how some sequences turned out for soluble fraction (log2).
seqText	measurementLabel	measured
HMAPVTPEERAQAMEEYKAMVTIEGYTPPKNIIEQNYKRGLWSETMLNMAVTKGAITEAEKLEIMN	soluble fraction (log2)	0.0947
HMARIDYHAMDSDDLSFSEGELLEIYDKPGSFWWKGRSLVSGDEGDIPS	soluble fraction (log2)	-1.15

Consider the sequence HMADLNFHQQIRSLPPEQQEILLLRFGQELTLRQIAQVTGVPLRTVQSRLRAALKKLKSQLEKEE and give its measured soluble fraction (log2).
-0.0215

Do the same for HMATRAEQMAKTHQAILDTARELFLRNGYDATSTRDIANAIGITQPALYHHFKDKEVIFLAVI please
0.101

* * *

# assayComment: soluble fraction after stress (log2 fold change); higher = more stays soluble; pooled small domains, quantitative proteomics
# appliedConditions: stress: pH 4
Decision: soluble fraction (log2) compared against -0.2; not below it gives Y, below it gives N.

seqText	category
HMLLQTAVISTDIVNMRAEPTTNSSVIRKLTKGSDITINQEKDGWYKISDDQGNSGWIVTWAAKPT	Y
HMTGWINVDKNWYYMNNSGSMARGMINVNNVSYYLDENGKMLSNTTVNVNGTDYRIDASGAMSQI	Y

Please check the record HMHLLGASIAAYRKKAGMTQEDLGRALFVSGQAVSRWERGGTPDSDMLPKIADVLGISLDTLFGRS and state if its soluble fraction (log2) is at or above -0.2.
N

Then this sequence: HMNQADNFNSLTKREKDVLLLVTQGESNKSIADKLVLSEVTVKSHLNSIFKKLNVTNRTQAVLVAMQMNLV
N

Okay, and HMEQISDEDTLRKMVNEVLDNNQTQLEQYKSGKTNLIGFFVGQTLKKSAGKANPSIVNKLVNEEIYI ?
Y

Also, HMDLRAPKPIKEMGEEYIKLYQYLRKGESENIVMSKMNISLDDYDYMRSEIEDKLSLYNMLDLLRKP please.
Y

Consider next the sequence HMDTIASESVRNRIEELISNENPKKPLSDQALVKMLQEFDIKIARRTVAKYREMLKIPPSSKRKQV in the same way.
Y

And then HMGEKPTEITLSNAISVQELAEKLYVSETDIIRTLFLDGIIVNINQVLDLETAVKVGDQLGVTITIVE , what is it?
N

* * *

# assayComment: soluble fraction after stress (log2 fold change); higher = more stays soluble; pooled small domains, quantitative proteomics
# appliedConditions: stress: pH 4
measurementLabel: soluble fraction (log2)
API doc: respond with a numeric literal and nothing else, no unit.

See these solved cases before continuing.
seqText	measured
HMVLFDLSEREKEVLKLLADGNSYKMIASRLEITYFTVNAHLKKIYEKLQVHSASEAVSVALRNSL	-1.36
HMHGLNQNKPIPIADIVNSVNNYLTSLGKKTITDNSVLSNLKKAAKYLNTAYNLVLRPDSLNMTVTLL	0.22

# input for lookup
Name the reported soluble fraction (log2) value associated with the sequence HMKITFNPVSSGRLDIILAEKTGYTRSYVKQLVEKQAVTINGEAAKKSGQNVKAGDEIALDEP
0.149

* * *

# assayComment: soluble fraction after stress (log2 fold change); higher = more stays soluble; pooled small domains, quantitative proteomics
# appliedConditions: stress: pH 4
measurementLabel: soluble fraction (log2)
Give only the figure.

seqText	measured
HMGGREEAGTDIARLLGYINDIHGEELIAKLEYYQKMLGSENFAVLMSRLPDGQKKELREQNLYSEYV	-0.298

Turning now to a further record.
Entry HMTIENTDTFLETLWEQVQRASVDENGIITSRVLIWDEGTKLDEILSWFDKRHSLGALYLQFG : reported soluble fraction (log2) = ?
-1.74
